Parameter protein stability index: see the listing below.
# protocol text: protein stability index of a GFP-peptide fusion (yeast GPS) (PSI 1-4); higher = more stable; sorted into four equal gates, so the index is relative within each strain
# study conditions: ubr1∆
Enter a number only.

Answered cases to consult:
{"ordered residues": "EELINAAKGSSTSYAIK [RPS5]", "value reported": 1.76}
{"ordered residues": "GTFTADYSKPNLPPHYA [SSN2]", "value reported": 2.15}
{"ordered residues": "TQIVAKFPETSYPILNE [SIN4]", "value reported": 2.89}
{"ordered residues": "RHHWQYTKASLAKERQK [SSN8]", "value reported": 2.14}
{"ordered residues": "KTITLEVESSDTIDNVK [RPS31]", "value reported": 2.64}
{"ordered residues": "LASSFVNGFLNLGYCND [RPN1]", "value reported": 3.17}
{"ordered residues": "YPVYTRLRTLCRDSDDH [DIS3]", "value reported": 2.95}
{"ordered residues": "FNRALDQSISKLQSWDK [NNF1]", "value reported": 1.78}
{"ordered residues": "QSISGTLELSAQFRVPR [SWP82]", "value reported": 2.79}
{"ordered residues": "SKDVQQIDYKLESFQAV [RPS7A]", "value reported": 3.07}

In plain terms, TLGNLIRAELLNDRKVL [RPB11] has a documented protein stability index of 2.87

In plain terms, PNGEGSKTWETYEMRIH [RPS20] has a documented protein stability index of 3.33

In plain terms, IQRTRERKKSIGSQRGR [DSN1] has a documented protein stability index of 2.91

In plain terms, EDMIDQVSKKLSSIEAS [SMC3] has a documented protein stability index of 3.05

In plain terms, LADRDEFIQDSAARGLS [ECM29] has a documented protein stability index of 2.01

In plain terms, TSGTNIAGTFNVGKPDQ [YOR098C/NUP1] has a documented protein stability index of 3.21

In plain terms, ATSKTSEMLAKYSDILL [CDC53] has a documented protein stability index of 3.07

In plain terms, PELAMALRLSMEEEQQR [RPN10] has a documented protein stability index of 3.14
